Test system: p21 induction in HCT116 cells
experiment notes: p21 induction in HCT116 cells
Assay type: cell-based
assay context: HCT116 cells, 24 h compound incubation; read-out: P21_EC50
pEC50: −log10 of the molar value.
recorded metric: pEC50

Task: Looking for the measured pEC50 of CCc1c(N2CCN(C(=O)c3ncnc(C)c3O)C3COCC32)c(=O)c2nc(N(C)C)cnc2n1CC(=O)Nc1ccc(C(F)(F)F)cc1Cl (single isomer, unassigned) [I-278] , can you help?
Result: 5.30 to 5.70

Task: Looking for the measured pEC50 of CCc1c(N2CCN(C(=O)c3ncnc(C)c3O)C3COCC32)c(=O)c2nc(N(C)C)cnc2n1CC(=O)Nc1ccc(C(F)(F)F)cc1Cl (single isomer, unassigned) [I-279] , can you help?
Result: < 5.30

Task: Looking for the measured pEC50 of CCc1c(N2CCN(C(=O)c3ncnc(C)c3O)C3COCC32)c(=O)c2nc(N(C)C)cnc2n1CC(=O)Nc1ccc(C(F)(F)F)cc1Cl (single isomer, unassigned) [I-294] , can you help?
Result: < 5.30

Task: Looking for the measured pEC50 of CCc1c(N2CCN(C(=O)c3ncnc(C)c3O)[C@H]3CC[C@@H]32)c(=O)c2nc(NC)cnc2n1CC(=O)Nc1ccc(C(F)(F)F)cc1Cl [I-227] , can you help?
Result: > 6.30

Please examine the following record next.
Task: Looking for the measured pEC50 of CCc1c(N2CCN(C(=O)c3ncnc(C)c3O)[C@@H]3CC[C@H]32)c(=O)c2nc(N(C)C3CC3)cnc2n1CC(=O)Nc1ccc(C(F)(F)F)cc1Cl (single isomer, unassigned) , can you help?
Result: 5.70 to 6.30

###

study system: WRN (BV08), human Werner helicase (Uniprot Q14191, amino acids 517-1235 with L1074F point mutation) (Homo sapiens (Human), UniProt Q14191, L1074F)
Sequence (Q14191 other isoform, or with tags, fused parts or gaps L1074F (already in the parent)): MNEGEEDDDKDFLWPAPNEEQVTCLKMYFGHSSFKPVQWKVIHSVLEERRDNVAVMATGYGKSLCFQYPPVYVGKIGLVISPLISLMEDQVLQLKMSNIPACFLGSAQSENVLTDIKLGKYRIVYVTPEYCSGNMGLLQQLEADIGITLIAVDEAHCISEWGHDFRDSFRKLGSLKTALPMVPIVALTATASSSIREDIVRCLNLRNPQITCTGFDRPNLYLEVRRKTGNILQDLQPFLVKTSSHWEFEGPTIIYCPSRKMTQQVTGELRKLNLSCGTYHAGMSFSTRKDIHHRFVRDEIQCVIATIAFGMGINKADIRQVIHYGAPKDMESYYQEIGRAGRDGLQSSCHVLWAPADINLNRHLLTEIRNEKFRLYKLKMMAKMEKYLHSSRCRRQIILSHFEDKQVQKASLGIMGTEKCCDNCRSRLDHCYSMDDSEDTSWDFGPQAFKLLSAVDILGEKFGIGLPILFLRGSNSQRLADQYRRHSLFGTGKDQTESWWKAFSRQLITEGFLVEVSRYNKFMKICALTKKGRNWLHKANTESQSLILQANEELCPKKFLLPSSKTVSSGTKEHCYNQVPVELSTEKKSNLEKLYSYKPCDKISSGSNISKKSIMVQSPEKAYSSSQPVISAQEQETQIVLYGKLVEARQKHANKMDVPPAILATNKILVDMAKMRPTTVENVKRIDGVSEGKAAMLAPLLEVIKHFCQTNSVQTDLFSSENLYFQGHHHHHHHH
experiment notes: WRN (BV08) ADP-Glo assay
assay context: class symbols A-E, read-out: ADP-Glo_hWRN_IC50
recorded metric: IC50

Task: Looking for the measured IC50 of CCc1c(N2CCN(C(=O)c3ncccc3O)CC2)c(=O)c2ncc(C)nc2n1CC(=O)Nc1ccc(C(F)(F)F)cc1Cl , can you help?
Result: 5 to 50 nM

Task: Looking for the measured IC50 of CCc1c(N2CCN(C(=O)c3ncnc(C)c3O)[C@H]3CC[C@@H]32)c(=O)c2nc(-c3cn[nH]c3)cnc2n1CC(=O)Nc1ccc(C(F)(F)F)cc1Cl , can you help?
Result: ≤ 5 nM

Task: Looking for the measured IC50 of CCc1c(N2CCN(C(=O)c3ncnc(C)c3O)CC2)c(=O)c2nc(-c3cnn(C)c3)c(C)nc2n1CC(=O)Nc1ccc(C(F)(F)F)cc1Cl , can you help?
Result: 5 to 50 nM

Task: Looking for the measured IC50 of CCc1c(N2CCN(C(=O)c3cnn(C)c3)[C@H]3CC[C@@H]32)c(=O)c2nc(N(C)C)cnc2n1CC(=O)Nc1ccc(C(F)(F)F)cc1Cl , can you help?
Result: 5 to 50 nM

Next:
Task: Looking for the measured IC50 of CCc1c(N2CCN(C(=O)c3ncnc(C)c3O)CC2)c(=O)c2nc(C(C)(C)O)cnc2n1CC(=O)Nc1ccc(C(F)(F)F)cc1Cl , can you help?
Result: 50 to 100 nM

Task: Looking for the measured IC50 of CCc1c(N2CCN(C(=O)c3ncnc(C)c3O)CC2)c(=O)c2nc(/C=C3/CCOC3)cnc2n1CC(=O)Nc1ccc(C(F)(F)F)cc1Cl , can you help?
Result: 5 to 50 nM

Task: Looking for the measured IC50 of CCc1c(N2CCN(C(=O)c3ncnc(C)c3O)[C@H]3CCC32)c(=O)c2nc(OC)c(C)nc2n1CC(=O)Nc1ccc(C(F)(F)F)cc1Cl (mixture of isomers) , can you help?
Result: 5 to 50 nM

###

Test system: p21 induction in HCT116 cells
experiment notes: p21 induction in HCT116 cells
Format: cell-based
assay context: Homo sapiens, HCT-116, 24 h, HCT116 cells, 24 h compound incubation; read-out: P21_EC50
EC50 values by entry

Task: Looking for the measured EC50 of CCc1c(N2CCN(C(=O)c3c(OC)ncc(COC)c3O)[C@H]3CC[C@@H]32)c(=O)c2nc(N(C)C)cnc2n1CC(=O)Nc1ccc(C(F)(F)F)cc1Cl , can you help?
Result: > 5000 nM

Task: Looking for the measured EC50 of CCc1c(N2CCN(C(=O)c3ncnc(C)c3O)C(CO)C2)c(=O)c2nc(N(C)C)cnc2n1CC(=O)Nc1ccc(C(F)(F)F)cc1Cl (stereo not drawn) , can you help?
Result: > 5000 nM

Task: Looking for the measured EC50 of CCc1c(N2CCN(C(=O)c3ncnc(C)c3O)[C@H]3CC[C@@H]32)c(=O)c2nc(N3CC[C@H](O)C3)cnc2n1CC(=O)Nc1ccc(C(F)(F)F)cc1Cl , can you help?
Result: 500 to 2000 nM

Task: Looking for the measured EC50 of CCc1c([C@]23CCN(C(=O)c4ncnc(C)c4O)C[C@H]2C3)c(=O)c2nc(N(C)C)cnc2n1CC(=O)Nc1ccc(C(F)(F)F)cc1Cl (single isomer, unassigned) , can you help?
Result: 500 to 2000 nM

Task: Looking for the measured EC50 of CCc1c(N2CCN(C(=O)c3ncnc(C)c3O)CC2)c(=O)c2nc(N3C[C@@H]4[C@H](C3)[C@H]4N(C)C)cnc2n1CC(=O)Nc1ccc(C(F)(F)F)cc1Cl , can you help?
Result: > 5000 nM

Next:
Task: Looking for the measured EC50 of CCc1c(N2CCN(C(=O)c3ncnc(C)c3O)[C@H]3CCC[C@@H]32)c(=O)c2nc(N(C)C)cnc2n1CC(=O)Nc1ccc(C(F)(F)F)cc1Cl , can you help?
Result: < 500 nM

###

Tested on: p21 induction in HCT116 cells
experiment notes: p21 induction in HCT116 cells
Type: cell-based
assay context: Homo sapiens, HCT-116, 24 h, HCT116 cells, 24 h compound incubation; read-out: P21_EC50
pEC50: −log10 of the molar value.
recorded metric: pEC50

The examples below pair each entry with its known result.
Task: Lab note: need pEC50 for CCc1c(N2CCN(C(=O)c3ncnc(C)c3O)CC2)c(=O)c2nc(OC3CC3)cnc2n1CC(=O)Nc1ccc(C(F)(F)F)cc1Cl on p21 induction in HCT116 cells, anyone have it?
Result: 5.30 to 5.70

Task: Lab note: need pEC50 for CCc1c(N2CCN(C(=O)c3ncnc(C)c3O)CC2)c(=O)c2nc(C)c(C)nc2n1CC(=O)Nc1ccc(C(F)(F)F)cc1Cl on p21 induction in HCT116 cells, anyone have it?
Result: 5.70 to 6.30

Task: Lab note: need pEC50 for CCc1c(N2CCN(C(=O)c3ncnc(C)c3O)[C@H]3CC[C@@H]32)c(=O)c2nc3nc(C)sc3nc2n1CC(=O)Nc1ccc(C(F)(F)F)cc1Cl on p21 induction in HCT116 cells, anyone have it?
Result: > 6.30

Task: Lab note: need pEC50 for CCc1c(N2CCN(C(=O)c3ncnc(C)c3O)[C@H]3CC[C@@H]32)c(=O)c2nc(N(C)[C@@H]3CC[C@@H](O)C3)cnc2n1CC(=O)Nc1ccc(C(F)(F)F)cc1Cl on p21 induction in HCT116 cells, anyone have it?
Result: > 6.30

Task: Lab note: need pEC50 for CCc1c(N2CCN(C(=O)c3ccc4cn[nH]c4c3O)CC2)c(=O)c2ncc(C)nc2n1CC(=O)Nc1ccc(C(F)(F)F)cc1Cl on p21 induction in HCT116 cells, anyone have it?
Result: < 5.30

Please examine the following record next.
Task: Lab note: need pEC50 for CCc1c(N2CCN(C(=O)c3c(OC)ncc(C)c3O)[C@@H]3CCC[C@@H]32)c(=O)c2nc(N(C)C)cnc2n1CC(=O)Nc1ccc(C(F)(F)F)cc1Cl (single isomer, unassigned) on p21 induction in HCT116 cells, anyone have it?
Result: > 6.30

###

IC50 values by entry
study system: WRN (BV08), human Werner helicase (Uniprot Q14191, amino acids 517-1235 with L1074F point mutation) (Homo sapiens (Human), UniProt Q14191, L1074F)
experiment notes: WRN (BV08) ADP-Glo assay
assay context: class symbols A-E, read-out: ADP-Glo_hWRN_IC50

The examples below pair each entry with its known result.
Task: Looking for the measured IC50 of CCc1c(N2CCN(C(=O)c3ncnc(C)c3O)C3COCC32)c(=O)c2nc(N(C)C)cnc2n1CC(=O)Nc1ccc(C(F)(F)F)cc1Cl (single isomer, unassigned) [I-279] , can you help?
Result: 100 to 500 nM

Task: Looking for the measured IC50 of CCc1c(N2CCN(C(=O)c3ncnc(C)c3O)CC2)c(=O)c2ncc(Cl)nc2n1CC(=O)Nc1ccc(C(F)(F)F)cc1Cl , can you help?
Result: 100 to 500 nM

Task: Looking for the measured IC50 of CCc1c(N2CCN(C(=O)c3ncnc(C)c3O)CC2)c(=O)c2nc(C3=CCOC3)cnc2n1CC(=O)Nc1ccc(C(F)(F)F)cc1Cl , can you help?
Result: 5 to 50 nM

Task: Looking for the measured IC50 of CCc1c(N2CCN(C(=O)c3ncnc(C)c3O)[C@H]3CC[C@@H]32)c(=O)c2nc(N(C)C)cnc2n1CC(=O)Nc1ccc(OC(F)(F)F)cc1Cl , can you help?
Result: 5 to 50 nM

Task: Looking for the measured IC50 of CCc1c(N2CCN(C(=O)c3ncnc(C)c3O)CC2)c(=O)c2nc(C)c(C)nc2n1CC(=O)Nc1ccc(C(F)(F)F)cc1Cl , can you help?
Result: 5 to 50 nM

Task: Looking for the measured IC50 of CCc1c(N2CCN(C(=O)c3ncnc(C)c3O)C3COCC32)c(=O)c2nc(N(C)C)cnc2n1CC(=O)Nc1ccc(C(F)(F)F)cc1Cl (single isomer, unassigned) [I-295] , can you help?
Result: 5 to 50 nM

Task: Looking for the measured IC50 of CCc1c(N2CCN(C(=O)c3c(O)ccnc3OC)[C@@H]3CC[C@H]32)c(=O)c2nc(N(C)C)cnc2n1CC(=O)Nc1ccc(C(F)(F)F)cc1Cl (racemic) , can you help?
Result: 5 to 50 nM

Task: Looking for the measured IC50 of CCc1c(N2CCN(C(=O)c3ncnc(C)c3O)CC2)c(=O)c2nc(/C=C/C3CCC3)cnc2n1CC(=O)Nc1ccc(C(F)(F)F)cc1Cl , can you help?
Result: ≤ 5 nM

Task: Looking for the measured IC50 of CC#Cc1cnc2c(n1)c(=O)c(N1CCN(C(=O)c3ncnc(C)c3O)CC1)c(CC)n2CC(=O)Nc1ccc(C(F)(F)F)cc1Cl , can you help?
Result: 5 to 50 nM

Task: Looking for the measured IC50 of CCc1c(N2CCN(C(=O)c3ncnc(C)c3O)CC2)c(=O)c2nc(N3CCC4(COC4)C3)cnc2n1CC(=O)Nc1ccc(C(F)(F)F)cc1Cl , can you help?
Result: 5 to 50 nM

Next:
Task: Looking for the measured IC50 of CCc1c(N2CCN(C(=O)c3ncnc(C)c3O)CC2)c(=O)c2nc(OC3COC3)cnc2n1CC(=O)Nc1ccc(C(F)(F)F)cc1Cl , can you help?
Result: > 500 nM

Task: Looking for the measured IC50 of CCc1c(N2CCN(C(=O)c3ncnc(C)c3O)[C@H]3CC[C@@H]32)c(=O)c2nc(N3CC(OC)C3)cnc2n1CC(=O)Nc1ccc(C(F)(F)F)cc1Cl , can you help?
Result: 5 to 50 nM

Task: Looking for the measured IC50 of CCc1c(N2CCN(C(=O)c3ncnc(C)c3O)[C@H]3CC[C@@H]32)c(=O)c2nc(-c3cncs3)cnc2n1CC(=O)Nc1ccc(C(F)(F)F)cc1Cl , can you help?
Result: 5 to 50 nM

Task: Looking for the measured IC50 of CCc1c(N2CCN(C(=O)c3ncnc(C)c3O)CC2)c(=O)c2nc(C3CC3)c(C)nc2n1CC(=O)Nc1ccc(C(F)(F)F)cc1Cl , can you help?
Result: 5 to 50 nM

Task: Looking for the measured IC50 of CCc1c(N2CCN(C(=O)c3ncnc(C)c3O)C[C@@H]2C)c(=O)c2nc(N3CC[C@H]4C[C@H]43)cnc2n1CC(=O)Nc1ccc(C(F)(F)F)cc1Cl (single isomer, unassigned) , can you help?
Result: ≤ 5 nM

Data provenance is patent US20250034136A1.
